Every entry's value here was drawn from patent US20250236608A1.

List of IC50 values.
- Target: EGFR (d746-750) (Homo sapiens (Human), UniProt P00533, DEL746-750)
- Sequence (P00533 other isoform, or with tags, fused parts or gaps del 1-694/del 746-750 limits assumed): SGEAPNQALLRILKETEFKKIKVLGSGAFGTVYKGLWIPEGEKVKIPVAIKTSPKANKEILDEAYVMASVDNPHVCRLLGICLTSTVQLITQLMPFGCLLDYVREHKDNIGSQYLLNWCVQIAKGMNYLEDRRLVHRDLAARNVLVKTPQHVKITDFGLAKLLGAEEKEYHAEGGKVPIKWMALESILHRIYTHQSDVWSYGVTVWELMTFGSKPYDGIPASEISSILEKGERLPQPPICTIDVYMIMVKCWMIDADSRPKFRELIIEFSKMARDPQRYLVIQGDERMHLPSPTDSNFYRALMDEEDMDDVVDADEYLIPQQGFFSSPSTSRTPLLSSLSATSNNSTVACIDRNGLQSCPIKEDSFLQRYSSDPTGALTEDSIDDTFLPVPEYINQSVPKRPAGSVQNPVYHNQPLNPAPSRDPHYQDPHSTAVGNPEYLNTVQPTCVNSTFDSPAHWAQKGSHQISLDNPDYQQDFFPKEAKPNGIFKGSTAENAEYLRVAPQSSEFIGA
- Assay protocol: Biochemical EGFR inhibition assay, EGFR (d746-750)
- Test context: Caliper mobility shift; 1.0 mM ATP or ATP Km; read-out: Enz EGFR_Exon19-del746-750 IC50
// note: answer is a bare numeric in nM

Below, 3 compounds whose answers are already recorded.
INSERT INTO assay_data (compound, measured) VALUES
  ('Cc1c(-c2ncnc3cc(-c4cnn(C)c4)ccc23)c(-c2ccccc2)nn1C', 4.4),
  ('COc1cc2ncnc(-c3cn(C)nc3-c3ccccc3)c2nc1O[C@H](C)c1nnc(C)s1 (single isomer, unassigned)', 2.7),
  ('Cn1cc(-c2cc(F)c3c(-c4cn(C)nc4-c4ccccc4)ncnc3c2)cn1', 0.4);

// next item, IC50 requested
query: Tell me IC50 reported for COc1cc2ncnc(-c3cn(C)nc3-c3ccccc3)c2cc1NC(=O)N1C[C@@H](C)N(C)C[C@@H]1C
result: 1.8

====

# reported IC50; entries follow
- Target: EGFR (d746-750) (Homo sapiens (Human), UniProt P00533, DEL746-750)
- Assay protocol: Biochemical EGFR inhibition assay, EGFR (d746-750)
- Test context: Caliper mobility shift; 1.0 mM ATP or ATP Km; read-out: Enz EGFR_Exon19-del746-750 IC50
Field: numeric (nM). Do not append units.

Known IC50 results, listed for orientation:
INSERT INTO measurements (structure_smiles, measurement_name, unit_annotation, measured) VALUES
  ('COc1cc2ncnc(-c3cn(C)nc3-c3ccccc3)c2cc1-c1cccc2cn(C)nc12', 'IC50', 'nM', 2.1),
  ('COc1cc2ncnc(-c3cn(C)nc3-c3ccccc3)c2cc1NC(=O)c1cncc(C)c1', 'IC50', 'nM', 2.7),
  ('CCOc1cc2ncnc(-c3cn(C)nc3-c3ccccc3)c2cc1OC', 'IC50', 'nM', 0.9),
  ('[2H]C([2H])([2H])n1cc(-c2ncnc3cc(OC)c(NC(=O)C45CC(N(C)C)(C4)C5)nc23)c(-c2ccccc2)n1', 'IC50', 'nM', 1.2),
  ('COC(=O)Nc1cc2c(-c3cn(C)nc3-c3ccccc3)ncnc2cc1OC', 'IC50', 'nM', 0.6),
  ('COc1cc2ncnc(-c3cn(C)nc3-c3ccccc3)c2cc1NC(=O)C12CC(C1)C2', 'IC50', 'nM', 1.6),
  ('CCn1cc([C@@H](C)Oc2nc3c(-c4cn(C)nc4-c4ccccc4)ncnc3cc2OC)nn1', 'IC50', 'nM', 1.9);

Turning now to a further record.
query: Note down IC50 recorded for COc1cc2ncnc(-c3cn(C)nc3-c3ccccc3)c2cc1-c1cnc2c(ccn2C)c1
result: 1.9

====

Reported pIC50 is given for each of the following molecules.
- Target: pEGFR (Tyr1068) in PC-9 cells (Ex19Del) (Homo sapiens (Human), UniProt P00533, DEL746-750)
- Sequence (P00533 other isoform, or with tags, fused parts or gaps del 746-750): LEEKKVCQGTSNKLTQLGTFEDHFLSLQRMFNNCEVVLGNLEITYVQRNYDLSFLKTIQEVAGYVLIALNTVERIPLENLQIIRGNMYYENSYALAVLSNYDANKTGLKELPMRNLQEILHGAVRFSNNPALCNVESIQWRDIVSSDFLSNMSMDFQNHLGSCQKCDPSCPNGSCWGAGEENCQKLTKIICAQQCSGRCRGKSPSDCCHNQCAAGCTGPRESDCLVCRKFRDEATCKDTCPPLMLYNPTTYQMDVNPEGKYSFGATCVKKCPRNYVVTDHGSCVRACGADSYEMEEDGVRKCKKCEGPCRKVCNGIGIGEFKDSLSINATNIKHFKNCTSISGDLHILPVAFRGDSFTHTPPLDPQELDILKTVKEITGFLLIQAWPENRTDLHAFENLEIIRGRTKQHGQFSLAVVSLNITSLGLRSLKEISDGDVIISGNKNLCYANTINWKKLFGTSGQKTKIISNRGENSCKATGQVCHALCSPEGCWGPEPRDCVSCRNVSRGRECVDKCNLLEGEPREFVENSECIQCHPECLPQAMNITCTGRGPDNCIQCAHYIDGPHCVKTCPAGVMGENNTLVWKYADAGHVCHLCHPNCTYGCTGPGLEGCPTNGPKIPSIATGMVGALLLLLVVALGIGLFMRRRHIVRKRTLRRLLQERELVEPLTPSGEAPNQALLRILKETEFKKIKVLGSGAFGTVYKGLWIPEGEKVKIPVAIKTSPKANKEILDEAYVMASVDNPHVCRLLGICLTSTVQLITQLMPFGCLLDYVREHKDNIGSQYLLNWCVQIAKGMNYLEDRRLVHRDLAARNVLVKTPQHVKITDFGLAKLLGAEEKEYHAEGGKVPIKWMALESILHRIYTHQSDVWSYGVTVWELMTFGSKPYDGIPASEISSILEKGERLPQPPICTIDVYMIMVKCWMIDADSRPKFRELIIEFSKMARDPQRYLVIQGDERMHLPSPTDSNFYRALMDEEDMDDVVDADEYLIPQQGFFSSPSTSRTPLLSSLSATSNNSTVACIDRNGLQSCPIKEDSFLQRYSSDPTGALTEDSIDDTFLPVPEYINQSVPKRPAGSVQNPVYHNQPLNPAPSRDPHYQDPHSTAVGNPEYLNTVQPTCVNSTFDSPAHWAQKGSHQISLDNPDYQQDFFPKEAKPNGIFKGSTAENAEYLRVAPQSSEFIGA
- Assay protocol: PC-9 pEGFR AlphaLISA assay
- Test context: 4 hours incubation, p-EGFR (Tyr1068) AlphaLISA, read-out: Ext pEGFR_PC-9 Ex19Del IC50
For clarity, pIC50 is expressed as the negative log10 of concentration in mol/L.

INSERT INTO measurements (molecule, measured) VALUES
  ('CCOc1cc2ncnc(-c3cn(C)nc3-c3ccccc3)c2cc1OC1CCOCC1 [Example 24]', 8.59);

query: Specify the recorded pIC50 for COc1cc2ncnc(-c3cn(C)nc3-c3ccccc3)c2cc1NC(=O)[C@@H]1CCN1C (single isomer, unassigned) [Example 252] , system: pEGFR (Tyr1068) in PC-9 cells (Ex19Del) (Homo sapiens (Human), UniProt P00533, DEL746-750).
result: 8.49

query: Look up and report measured pIC50 (pEGFR (Tyr1068) in PC-9 cells (Ex19Del) (Homo sapiens (Human), UniProt P00533, DEL746-750)) for the following molecule: COc1cc2ncnc(-c3cn(C)nc3-c3ccccc3)c2cc1NC(=O)C1(C(F)(F)F)CC1 [Example 349]
result: 8.46

query: Give pEGFR (Tyr1068) in PC-9 cells (Ex19Del) (Homo sapiens (Human), UniProt P00533, DEL746-750) pIC50 for the following molecule: COc1cc2ncnc(-c3cn(C)nc3-c3ccccc3)c2cc1NC(=O)c1ccncc1 [Example 351]
result: 8.34

query: Provide pEGFR (Tyr1068) in PC-9 cells (Ex19Del) (Homo sapiens (Human), UniProt P00533, DEL746-750) pIC50 reading for CCn1cc(-c2ncnc3cc(OC)c(NC(=O)[C@@]45COC[C@@H]4C5)cc23)c(-c2ccccc2F)n1 (mixture of isomers) [Example 262] .
result: 8.96

query: Please indicate recorded pIC50 of COc1cc2ncnc(-c3cn(C)nc3-c3ccccc3)c2cc1OC(=O)N1CCN(C)CC1C (stereo not drawn) [Example 57] measured with pEGFR (Tyr1068) in PC-9 cells (Ex19Del) (Homo sapiens (Human), UniProt P00533, DEL746-750).
result: 8.66

query: Report measured pIC50 on pEGFR (Tyr1068) in PC-9 cells (Ex19Del) (Homo sapiens (Human), UniProt P00533, DEL746-750); entry: COc1cc2ncnc(-c3c[nH]nc3-c3ccccc3)c2cc1[C@@H]1CCCCO1 (single isomer, unassigned) [Example 132]
result: 9.22

====

Recorded IC50 for the following compounds
- Target: EGFR (d746-750) (Homo sapiens (Human), UniProt P00533, DEL746-750)
- Assay protocol: Biochemical EGFR inhibition assay, EGFR (d746-750)
- Test context: Caliper mobility shift; 1.0 mM ATP or ATP Km; read-out: Enz EGFR_Exon19-del746-750 IC50
Your answer is read as nM, so omit the unit and give the number.

Below are worked cases with known answers.
INSERT INTO results (compound, unit_annotation, measured) VALUES
  ('COc1cc2ncnc(-c3cn(C)nc3-c3ccccc3)c2cc1NC(=O)[C@H]1CCN(C)C[C@@H]1F', 'nM', 0.8),
  ('COc1cc2ncnc(-c3cn(C)nc3-c3ccccc3)c2cc1NC(=O)[C@H]1CCCN1C (single isomer, unassigned)', 'nM', 2.1),
  ('Cn1cc(-c2ncnc3cc(C#CCN4CCOCC4)c(NC(=O)C45CC(C4)C5)nc23)c(-c2ccccc2)n1', 'nM', 4.8),
  ('COc1cc2ncnc(-c3cn(C)nc3-c3ccccc3)c2cc1NC(=O)c1ccnc(C)c1', 'nM', 0.7),
  ('COc1cc2ncnc(-c3cn(C)nc3-c3ccccc3)c2cc1NC(=O)[C@@H]1CCN(C)C[C@H]1F (racemic) [Example 339]', 'nM', 1),
  ('COc1cc2ncnc(-c3cn(C)nc3-c3ccccc3)c2nc1NC(=O)[C@@]1(C(F)(F)F)CCN(C)C1 (single isomer, unassigned)', 'nM', 2.7),
  ('CC(C)Oc1cc2ncnc(-c3cn(C)nc3-c3ccccc3)c2cc1OC(=O)N1CCOC[C@H]1C', 'nM', 2.5),
  ('COc1cc2ncnc(-c3cn(C)nc3-c3ccccc3)c2cc1NC(=O)c1ccncc1Cl', 'nM', 0.8);

query: Output IC50 of COc1cc2ncnc(-c3cn(C)nc3-c3ccc(F)cc3)c2nc1NC(=O)[C@]12CN(C)C[C@H]1C2(F)F (single isomer, unassigned)
result: 1

query: In one line, give reported IC50 of the entry COc1cc2ncnc(-c3cn(C)nc3-c3ccccc3)c2nc1O[C@H](C)c1cnnn1C .
result: 4.1

query: Tell me IC50 reported for CCn1cc(-c2ncnc3cc(OC)c(NC(=O)C4(C(F)(F)F)CC4)nc23)c(-c2ccccc2)n1
result: 0.9

query: Hello, please tell me recorded IC50 for this one: CCOc1cc2ncnc(-c3cn(C4CC4)nc3-c3ccccc3)c2cc1CO
result: 0.7

query: Give me measured IC50, please, for this compound: COc1cc2ncnc(-c3cn(C)nc3-c3ccccc3)c2cc1OC(=O)N1[C@H](C)CNC[C@@H]1C
result: 2.1

query: Supply IC50 value. Item: COc1cc2ncnc(-c3cn(C)nc3-c3ccccc3)c2cc1NC(=O)N1C[C@H](C)N(C)C[C@@H]1C
result: 3.3

====

- Target: pEGFR (Tyr1068) in PC-9 cells (Ex19Del) (Homo sapiens (Human), UniProt P00533, DEL746-750)
- Assay protocol: PC-9 pEGFR AlphaLISA assay
- Test context: 4 hours incubation, p-EGFR (Tyr1068) AlphaLISA, read-out: Ext pEGFR_PC-9 Ex19Del IC50
Please assign label 0 whenever IC50 is at or above 5 nM, and label 1 whenever it is below.

# count of solved cases: 5
INSERT INTO measurements (molecule, class_label) VALUES
  ('CCOc1cc2ncnc(-c3cn(C)nc3-c3ccccc3)c2cc1N1CCN(C)CC1 [Example 162]', 'label 0'),
  ('COc1cc2ncnc(-c3cn(C)nc3-c3ccccc3)c2nc1O[C@@H](C)c1nnnn1C [Example 45]', 'label 0'),
  ('CCn1cc(-c2ncnc3cc(OC)c([C@H](C)O)cc23)c(-c2ccccc2)n1 (single isomer, unassigned) [Example 105]', 'label 0'),
  ('COc1cc2ncnc(-c3cn(C)nc3-c3ccccc3F)c2nc1NC(=O)C1(C(F)(F)F)CC1 [Example 317]', 'label 1'),
  ('COc1cc2ncnc(-c3cn(C)nc3-c3ccccc3)c2cc1OC(=O)N1CCN(C)CC1(C)C [Example 78]', 'label 0');

Lab note: next molecule to report on.
query: Please determine if COc1cc2ncnc(-c3cn(C)nc3-c3ccccc3)c2nc1NC(=O)c1cnn(C(F)(F)F)c1C [Example 427] is below 5 nM in terms of IC50.
result: label 1
